Sourced from paper PMC3091354

format: in vivo; conditions: male, C57BL/6N, mouse, brain, ip, 200 mg/kg
Measure: Tmax (min)
Numbers only, in min.

Look up Tmax for this compound: COc1cccc(CN)c1O [3-MoSA, 3-methoxy-2-hydroxybenzylamine] 15

* * *

format: in vivo; details: male, C57BL/6N, mouse, heart, ip, 200 mg/kg
Measure: MRT inf (min)
Answers are plain numbers, in min.

Request the reported MRT inf associated with COc1cccc(CN)c1O [3-MoSA, 3-methoxy-2-hydroxybenzylamine] 54

* * *

format: in vivo; conditions: male, C57BL/6N, mouse, kidney, ip, 200 mg/kg
Measure: MRT inf (min)
Numbers only, in min.

Item COc1cccc(CN)c1O [3-MoSA, 3-methoxy-2-hydroxybenzylamine] has what recorded MRT inf? 54

* * *

assay type: in vivo; conditions: male, C57BL/6N, mouse, kidney, oral, 7 g/l, Concentration in kidney, drink at 7 g/l
Measure: concentration at 1 week

For COc1cccc(CN)c1O [3-MoSA, 3-methoxy-2-hydroxybenzylamine] , what is its reported concentration at 1 week? 210000 ng/g

* * *

format: in vivo; settings: male, C57BL/6N, mouse, liver, oral, 5 g/l, Concentration in liver, drink at 5 g/l
Measure: concentration at 1 week (ng/g)
Answers are plain numbers, in ng/g.

Tell me the measured concentration at 1 week of COc1cccc(CN)c1O [3-MoSA, 3-methoxy-2-hydroxybenzylamine] , please. 204000

* * *

format: in vivo; details: male, C57BL/6N, mouse, brain, oral, 3 g/l, Concentration in brain, drink at 3 g/l
Measure: concentration at 1 week (ng/g)
Answers are plain numbers, in ng/g.

// concentration at 1 week lookup, key: COc1cccc(CN)c1O [3-MoSA, 3-methoxy-2-hydroxybenzylamine] 18000

* * *

assay type: in vivo; conditions: male, C57BL/6N, mouse, plasma, oral, 7 g/l, Concentration in plasma, drink at 7 g/l
Measure: concentration at 1 week (ng/mL)
Numbers only, in ng/mL.

Report concentration at 1 week for COc1cccc(CN)c1O [3-MoSA, 3-methoxy-2-hydroxybenzylamine] please. 10800

* * *

assay type: in vivo; conditions: male, C57BL/6N, mouse, brain, oral, 10 g/l, Concentration in brain, drink at 10 g/l
Measure: concentration at 1 week (ng/g)
Answers are plain numbers, in ng/g.

So what does the record say about concentration at 1 week for COc1cccc(CN)c1O [3-MoSA, 3-methoxy-2-hydroxybenzylamine] ? 82000

* * *

type: in vivo; settings: male, C57BL/6N, mouse, heart, oral, 7 g/l, Concentration in heart, drink at 7 g/l
Measure: concentration at 1 week (ng/g)
Numbers only, in ng/g.

Reported concentration at 1 week, molecule COc1cccc(CN)c1O [3-MoSA, 3-methoxy-2-hydroxybenzylamine] : ____ 53500

* * *

type: in vivo; settings: male, C57BL/6N, mouse, plasma, oral, 10 g/l, Concentration in plasma, drink at 10 g/l
Measure: concentration at 1 week (ng/mL)
One number for each entry, in ng/mL.

For the molecule shown here, COc1cccc(CN)c1O [3-MoSA, 3-methoxy-2-hydroxybenzylamine] , give the reported concentration at 1 week. 11500

* * *

type: in vivo; conditions: male, C57BL/6N, mouse, spleen, ip, 200 mg/kg
Measure: MRT inf

Which measured MRT inf value corresponds to COc1cccc(CN)c1O [3-MoSA, 3-methoxy-2-hydroxybenzylamine] ? 1 h

* * *

assay type: in vivo; details: male, C57BL/6N, mouse, spleen, ip, 200 mg/kg
Measure: Tmax (min)
One number for each entry, in min.

Data request, read-out Tmax, for COc1cccc(CN)c1O [3-MoSA, 3-methoxy-2-hydroxybenzylamine] 15

* * *

format: in vivo; conditions: male, C57BL/6N, mouse, heart, oral, 10 g/l, Concentration in heart, drink at 10 g/l
Measure: concentration at 1 week (ng/g)
Give bare numbers, in ng/g.

State the recorded concentration at 1 week for this entry: COc1cccc(CN)c1O [3-MoSA, 3-methoxy-2-hydroxybenzylamine] 60200

* * *

assay type: in vivo; details: male, C57BL/6N, mouse, brain, oral, 7 g/l, Concentration in brain, drink at 7 g/l
Measure: concentration at 1 week

# get_value(readout='concentration at 1 week', item= COc1cccc(CN)c1O [3-MoSA, 3-methoxy-2-hydroxybenzylamine] ) 38000 ng/g

* * *

format: in vivo; conditions: male, C57BL/6N, mouse, liver, oral, 3 g/l, Concentration in liver, drink at 3 g/l
Measure: concentration at 1 week (ng/g)
One number for each entry, in ng/g.

What does the data say about its concentration at 1 week? Entry: COc1cccc(CN)c1O [3-MoSA, 3-methoxy-2-hydroxybenzylamine] 74100

* * *

format: in vivo; conditions: male, C57BL/6N, mouse, brain, oral, 5 g/l, Concentration in brain, drink at 5 g/l
Measure: concentration at 1 week (ng/g)
Numbers only, in ng/g.

Consider the compound COc1cccc(CN)c1O [3-MoSA, 3-methoxy-2-hydroxybenzylamine] and give its measured concentration at 1 week. 25000

* * *

assay type: in vivo; conditions: male, C57BL/6N, mouse, kidney, oral, 3 g/l, Concentration in kidney, drink at 3 g/l
Measure: concentration at 1 week (ng/g)
One number for each entry, in ng/g.

If you can, please state the reported concentration at 1 week value of COc1cccc(CN)c1O [3-MoSA, 3-methoxy-2-hydroxybenzylamine] . 91100

* * *

type: in vivo; settings: male, C57BL/6N, mouse, liver, oral, 7 g/l, Concentration in liver, drink at 7 g/l
Measure: concentration at 1 week
Returns: string containing the numeric result and its unit.

I am curious: what concentration at 1 week value has been reported for COc1cccc(CN)c1O [3-MoSA, 3-methoxy-2-hydroxybenzylamine] ? 252000 ng/g
